- Tested on: NOMO1
- experiment_description: cell viability relative to DMSO control; higher = less cytotoxic
- experimental_setup: RPMI 5 mM glucose + 10% FBS; 48 h; 1.71 µM
assay_metric: cell viability (%)
Write the answer as a number in %, unit excluded.

// solved cases for cell viability follow
* Cc1ccc(C(=O)Nc2ccc([S+](=O)([O-])O)c3cc([S+](=O)([O-])O)cc([S+](=O)([O-])O)c23)cc1NC(=O)c1cccc(NC(=O)Nc2cccc(C(=O)Nc3cc(C(=O)Nc4ccc([S+](=O)([O-])O)c5cc([S+](=O)([O-])O)cc([S+](=O)([O-])O)c45)ccc3C)c2)c1 | 90.4
* CN(C)c1ccc(-c2nc3c(N4CCN(CC(=O)Nc5nccs5)CC4)c(Cl)cnc3[nH]2)cc1 | 109
* c1ccc2c(CN3CCNCC3)cccc2c1 | 133
* COc1cc2cc(c1Cl)N(C)C(=O)C[C@H](OC(=O)C(C)C)[C@]1(C)O[C@@H]1[C@H](C)[C@@H]1C[C@@](O)(NC(=O)O1)[C@H](OC)/C=C/C=C(\C)C2 | 19

Asked: // returns reported cell viability for input CC(O)(C[S+](=O)([O-])c1ccc(F)cc1)C(=O)Nc1ccc(C#N)c(C(F)(F)F)c1 (configuration not stated)
Given back: 93.3

Asked: // returns reported cell viability for input `CCC(=O)N1CCN(CC1)C2=C(C=C(C=C2)N3C(=O)\C=C/C4=C3C5=CC(=CC=C5N=C4)C6=CN=C7C=CC=CC7=C6)C(F)(F)F`
Given back: 68.2

Asked: // returns reported cell viability for input `c1coc(CNc2ncnc3nc[nH]c23)c1`
Given back: 132

----------
- Test system: P12-Ichikawa
- experiment_description: cell viability relative to DMSO control; higher = less cytotoxic
- experimental_setup: RPMI 5 mM glucose + 10% FBS; 48 h; 5.12 µM
t if cell viability is below 80%. f if not; exact matches included in f.

Look over these answered cases.
* C[C@@H](Cc1cc2c(c(C(N)=O)c1)N(CCCO)CC2)NCCOc1ccccc1OCC(F)(F)F | f
* Cc1nnc(C(C)C)n1[C@@H]1C[C@H]2CC[C@@H](C1)N2CC[C@H](NC(=O)C1CCC(F)(F)CC1)c1ccccc1 | f

Asked: is_below(cell viability, 80%) for `CCOC(=O)c1c(CSc2ccccc2)n(C)c2cc(Br)c(O)c(CN(C)C)c12` ?
Given back: f

Asked: is_below(cell viability, 80%) for `NC[C@H](O)c1ccc(O)c(O)c1` ?
Given back: f

Asked: is_below(cell viability, 80%) for `Cc1ccc(C(=O)Nc2ccc([S+](=O)([O-])O)c3cc([S+](=O)([O-])O)cc([S+](=O)([O-])O)c23)cc1NC(=O)c1cccc(NC(=O)Nc2cccc(C(=O)Nc3cc(C(=O)Nc4ccc([S+](=O)([O-])O)c5cc([S+](=O)([O-])O)cc([S+](=O)([O-])O)c45)ccc3C)c2)c1` ?
Given back: t

Asked: is_below(cell viability, 80%) for C#CCC(Cc1cnc2nc(N)nc(N)c2n1)c1ccc(C(=O)N[C@@H](CCC(=O)O)C(=O)O)cc1 (stereo partly drawn) ?
Given back: t

Asked: is_below(cell viability, 80%) for `N#Cc1cc(NC(=O)Nc2nnc(-c3ccncc3)s2)ccc1-c1cn[nH]c1` ?
Given back: f

Asked: is_below(cell viability, 80%) for `NC(=O)N1CCC(CC(=O)N2CCC([C@H]3c4ncc(Br)cc4CCc4cc(Cl)cc(Br)c43)CC2)CC1` ?
Given back: t

Asked: is_below(cell viability, 80%) for `COc1cc2cc(c1Cl)N(C)C(=O)C[C@H](OC(=O)C(C)C)[C@]1(C)O[C@@H]1[C@H](C)[C@@H]1C[C@@](O)(NC(=O)O1)[C@H](OC)/C=C/C=C(\C)C2` ?
Given back: t

Asked: is_below(cell viability, 80%) for `COc1cccc(N(C)C(=S)Oc2ccc3c(c2)CCCC3)n1` ?
Given back: f

Asked: is_below(cell viability, 80%) for `O=C(O)c1cccc(-c2noc(-c3ccccc3F)n2)c1` ?
Given back: f
